# TEST SYSTEM: MCH-2 (Homo sapiens, UniProt P55212)
# Sequence (P55212 24-179 limits assumed): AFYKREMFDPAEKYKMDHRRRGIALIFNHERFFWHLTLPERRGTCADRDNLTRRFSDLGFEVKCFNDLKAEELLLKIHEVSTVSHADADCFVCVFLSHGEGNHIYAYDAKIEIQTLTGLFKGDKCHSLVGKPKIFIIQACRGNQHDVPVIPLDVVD
# Sequence (P55212 194-293 limits assumed): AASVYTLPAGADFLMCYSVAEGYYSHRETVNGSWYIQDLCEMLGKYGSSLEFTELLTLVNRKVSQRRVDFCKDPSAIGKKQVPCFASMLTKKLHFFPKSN
# EXPERIMENT: Dissociation constant Ki and irreversible rate constant k3 for irreversible inhibitors, Mch2
# APPLIED CONDITIONS: continuous assay 60 min, reaction initiated by adding enzyme
// Ki lookup, one value per entry
METRIC NAME: Ki (nM)

[[record]]
molecule = "C[C@H](NC(=O)COc1ccc2ccccc2c1)C(=O)NC(CC(=O)O)C(=O)COc1c(F)c(F)cc(F)c1F (stereo partly shown)"
test_system = "MCH-2 (Homo sapiens, UniProt P55212)"
metric_name = "Ki"
units = "nM"
obs_value = 1260

[[record]]
molecule = "CC(C)[C@H](NC(=O)COc1cccc2ccccc12)C(=O)N[C@@H](CC(=O)O)C(=O)COc1cc(F)c(F)cc1F"
test_system = "MCH-2 (Homo sapiens, UniProt P55212)"
metric_name = "Ki"
units = "nM"
obs_value = 526

[[record]]
molecule = "CC(C)[C@H](NC(=O)COc1cccc2ccccc12)C(=O)N[C@@H](CC(=O)O)C(=O)COc1c(F)cccc1F"
test_system = "MCH-2 (Homo sapiens, UniProt P55212)"
metric_name = "Ki"
units = "nM"
obs_value = 38

[[record]]
molecule = "CC(C)C[C@H](NC(=O)COc1ccccc1-c1ccccc1)C(=O)NC(CC(=O)O)C(=O)CF (mixture of isomers)"
test_system = "MCH-2 (Homo sapiens, UniProt P55212)"
metric_name = "Ki"
units = "nM"
obs_value = 30

[[record]]
molecule = "CC(C)[C@H](NC(=O)COc1cccc2ccccc12)C(=O)N[C@@H](CC(=O)O)C(=O)COc1cccc(F)c1"
test_system = "MCH-2 (Homo sapiens, UniProt P55212)"
metric_name = "Ki"
units = "nM"
obs_value = 344

[[record]]
molecule = "CC(C)[C@H](NC(=O)COc1cccc2ccccc12)C(=O)N[C@@H](CC(=O)O)C(=O)COc1c(F)cc(F)cc1F"
test_system = "MCH-2 (Homo sapiens, UniProt P55212)"
metric_name = "Ki"
units = "nM"
obs_value = 81

[[record]]
molecule = "CCCCCCP(=O)(OCC(=O)[C@H](CC(=O)O)NC(=O)[C@@H](NC(=O)COc1cccc2ccccc12)C(C)C)c1ccccc1 (stereo partly shown)"
test_system = "MCH-2 (Homo sapiens, UniProt P55212)"
metric_name = "Ki"
units = "nM"
obs_value = 80

[[record]]
molecule = "CC(C)[C@H](NC(=O)COc1cccc2ccccc12)C(=O)N[C@@H](CC(=O)O)C(=O)COc1ccc(F)c(F)c1"
test_system = "MCH-2 (Homo sapiens, UniProt P55212)"
metric_name = "Ki"
units = "nM"
obs_value = 1160

[[record]]
molecule = "CC(C)C[C@H](NC(=O)COc1ccccc1-c1ccccc1)C(=O)N[C@@H](CC(=O)O)C(=O)COc1c(F)cc(F)cc1F"
test_system = "MCH-2 (Homo sapiens, UniProt P55212)"
metric_name = "Ki"
units = "nM"
obs_value = 12

[[record]]
molecule = "CC(C)C[C@H](NC(=O)COc1c(C(=O)O)ccc2ccccc12)C(=O)N[C@@H](CC(=O)O)C(=O)COC(=O)c1c(Cl)cccc1Cl"
test_system = "MCH-2 (Homo sapiens, UniProt P55212)"
metric_name = "Ki"
units = "nM"
obs_value = 8

[[record]]
molecule = "CC(C)[C@H](NC(=O)CCOc1ccccc1)C(=O)N[C@@H](CC(=O)O)C(=O)COc1c(F)c(F)cc(F)c1F"
test_system = "MCH-2 (Homo sapiens, UniProt P55212)"
metric_name = "Ki"
units = "nM"
obs_value = 93

[[record]]
molecule = "CC(C)[C@H](NC(=O)COc1cccc2ccccc12)C(=O)N[C@@H](CC(=O)O)C(=O)COc1ccccc1"
test_system = "MCH-2 (Homo sapiens, UniProt P55212)"
metric_name = "Ki"
units = "nM"
obs_value = 153

[[record]]
molecule = "CC(C)C[C@H](NC(=O)COc1ccccc1-c1ccccc1)C(=O)N[C@@H](CC(=O)O)C(=O)COP(=O)(c1ccccc1)c1ccccc1"
test_system = "MCH-2 (Homo sapiens, UniProt P55212)"
metric_name = "Ki"
units = "nM"
obs_value = 30

[[record]]
molecule = "CC(C)[C@H](NC(=O)COc1ccccc1-c1ccccc1)C(=O)N[C@@H](CC(=O)O)C(=O)COc1c(F)cc(F)cc1F"
test_system = "MCH-2 (Homo sapiens, UniProt P55212)"
metric_name = "Ki"
units = "nM"
obs_value = 23

[[record]]
molecule = "CC(C)[C@H](NC(=O)COc1cccc2ccccc12)C(=O)N[C@@H](CC(=O)O)C(=O)COc1c(F)c(F)c(F)c(F)c1F"
test_system = "MCH-2 (Homo sapiens, UniProt P55212)"
metric_name = "Ki"
units = "nM"
obs_value = 23

[[record]]
molecule = "Cc1cc(OCC(=O)[C@H](CC(=O)O)NC(=O)[C@@H](NC(=O)COc2cccc3ccccc23)C(C)C)cc(=O)o1"
test_system = "MCH-2 (Homo sapiens, UniProt P55212)"
metric_name = "Ki"
units = "nM"
obs_value = 2160

[[record]]
molecule = "CC(C)[C@H](NC(=O)COc1cccc2ccccc12)C(=O)N[C@@H](CC(=O)O)C(=O)COC(=O)c1c(Cl)cccc1Cl"
test_system = "MCH-2 (Homo sapiens, UniProt P55212)"
metric_name = "Ki"
units = "nM"
obs_value = 12

[[record]]
molecule = "Cc1nnc(SCC(=O)[C@H](CC(=O)O)NC(=O)[C@@H](NC(=O)COc2cccc3ccccc23)C(C)C)s1"
test_system = "MCH-2 (Homo sapiens, UniProt P55212)"
metric_name = "Ki"
units = "nM"
obs_value = 2410

[[record]]
molecule = "CC(C)[C@H](NC(=O)COc1cccc2ccccc12)C(=O)NC(CC(=O)O)C(=O)CF (mixture of isomers)"
test_system = "MCH-2 (Homo sapiens, UniProt P55212)"
metric_name = "Ki"
units = "nM"
obs_value = 38


The reported measurements were obtained from patent US7157430B2.
